From: patent US11834453B2

# System Tested: BCRP (Homo sapiens (Human))
# Assay Summary: BCRP transfected MDCKII canine Mdr1 knockout permeability/efflux, Assay 9
# Test Settings: dog
Assay Metric: efflux ratio at 2 h, 1 μM
The answer should be a number; do not append a unit.

1. Cc1cc(Nc2ncnc3cnc(N4C[C@@H](O)C5(CC5)C4)nc23)ccc1Oc1ccc2c(c1)ncn2C [Example 211]	25.2

Task: Give BCRP (Homo sapiens (Human)) efflux ratio at 2 h, 1 μM for Cc1cc(Nc2ncnc3cnc(N4CCO[C@@H](C)C4)nc23)ccc1Oc1ccc2c(c1)ncn2C.O=C(O)C(F)(F)F [Example 74]
Result: 1.3

Task: Give BCRP (Homo sapiens (Human)) efflux ratio at 2 h, 1 μM for Clc1cc(Nc2ncnc3cnc(N4CCC45COC5)nc23)ccc1Oc1ccn2ncnc2c1 [Example 132]
Result: 1.8

Task: Give BCRP (Homo sapiens (Human)) efflux ratio at 2 h, 1 μM for Cn1cnc2cc(Oc3ccc(Nc4ncnc5cnc(N6CCC67COC7)nc45)cc3Cl)ccc21.O=C(O)C(F)(F)F [Example 145]
Result: 2.1

----------
Measured pIC50 on EGFR (Homo sapiens (Human), UniProt P00533) follows.
Sequence (P00533 25-1210): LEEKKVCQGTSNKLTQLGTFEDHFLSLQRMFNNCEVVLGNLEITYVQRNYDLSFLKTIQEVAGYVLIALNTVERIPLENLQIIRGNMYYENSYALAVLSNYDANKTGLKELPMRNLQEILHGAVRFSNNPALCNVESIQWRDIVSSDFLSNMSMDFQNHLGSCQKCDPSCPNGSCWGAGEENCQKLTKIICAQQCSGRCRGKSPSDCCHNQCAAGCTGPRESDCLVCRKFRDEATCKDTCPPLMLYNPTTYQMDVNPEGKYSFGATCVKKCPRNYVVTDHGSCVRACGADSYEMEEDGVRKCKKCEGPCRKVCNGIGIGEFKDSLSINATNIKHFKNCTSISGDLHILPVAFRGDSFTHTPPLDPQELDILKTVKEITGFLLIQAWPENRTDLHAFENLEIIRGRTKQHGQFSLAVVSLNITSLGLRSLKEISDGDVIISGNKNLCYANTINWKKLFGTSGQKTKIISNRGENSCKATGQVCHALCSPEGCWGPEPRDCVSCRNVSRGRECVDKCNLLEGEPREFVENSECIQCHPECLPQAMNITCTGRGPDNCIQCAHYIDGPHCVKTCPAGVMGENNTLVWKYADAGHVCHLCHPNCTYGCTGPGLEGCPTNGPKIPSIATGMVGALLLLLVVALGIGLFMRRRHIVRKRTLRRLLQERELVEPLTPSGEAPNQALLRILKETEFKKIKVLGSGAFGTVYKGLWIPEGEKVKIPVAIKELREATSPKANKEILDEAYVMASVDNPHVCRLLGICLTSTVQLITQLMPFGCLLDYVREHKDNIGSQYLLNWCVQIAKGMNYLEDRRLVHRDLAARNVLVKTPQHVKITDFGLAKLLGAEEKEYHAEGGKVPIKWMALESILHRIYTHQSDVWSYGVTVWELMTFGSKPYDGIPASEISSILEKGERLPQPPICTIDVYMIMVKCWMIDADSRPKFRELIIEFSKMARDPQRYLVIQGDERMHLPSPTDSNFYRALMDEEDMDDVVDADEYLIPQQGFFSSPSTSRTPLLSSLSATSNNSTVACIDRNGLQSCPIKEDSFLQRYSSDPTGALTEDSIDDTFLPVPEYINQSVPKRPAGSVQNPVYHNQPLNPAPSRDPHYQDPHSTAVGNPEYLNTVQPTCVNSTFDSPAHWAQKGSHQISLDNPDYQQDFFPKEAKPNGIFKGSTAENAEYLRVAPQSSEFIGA
pIC50: −log10 of the molar value.

Task: Give EGFR (Homo sapiens (Human), UniProt P00533) pIC50 for Cc1cc(Nc2ncnc3cnc(N4CCCC4)nc23)ccc1Oc1ccc2c(c1)ncn2C [Example 222]
Result: ≤ 5.00

Task: Give EGFR (Homo sapiens (Human), UniProt P00533) pIC50 for Cc1cc(Nc2ncnc3cnc(N4CCCCS4(=O)=O)nc23)ccc1Oc1ccc2c(c1)ncn2C [Example 437]
Result: ≤ 5.00

Task: Give EGFR (Homo sapiens (Human), UniProt P00533) pIC50 for CC(=O)N1C2CC1CN(c1ncc3ncnc(Nc4ccc(Oc5ccc6c(c5)ncn6C)c(C)c4)c3n1)C2 [Example 89]
Result: ≤ 5.00

Task: Give EGFR (Homo sapiens (Human), UniProt P00533) pIC50 for Cc1cc(Nc2ncnc3cnc(N4CCN[C@H](C(F)(F)F)C4)nc23)ccc1Oc1ccn2ncnc2c1 [Example 355]
Result: 5.30

----------
Measured IC50 on ErbB2 WT (Homo sapiens (Human)) follows.
Sequence (P04626 23-1255): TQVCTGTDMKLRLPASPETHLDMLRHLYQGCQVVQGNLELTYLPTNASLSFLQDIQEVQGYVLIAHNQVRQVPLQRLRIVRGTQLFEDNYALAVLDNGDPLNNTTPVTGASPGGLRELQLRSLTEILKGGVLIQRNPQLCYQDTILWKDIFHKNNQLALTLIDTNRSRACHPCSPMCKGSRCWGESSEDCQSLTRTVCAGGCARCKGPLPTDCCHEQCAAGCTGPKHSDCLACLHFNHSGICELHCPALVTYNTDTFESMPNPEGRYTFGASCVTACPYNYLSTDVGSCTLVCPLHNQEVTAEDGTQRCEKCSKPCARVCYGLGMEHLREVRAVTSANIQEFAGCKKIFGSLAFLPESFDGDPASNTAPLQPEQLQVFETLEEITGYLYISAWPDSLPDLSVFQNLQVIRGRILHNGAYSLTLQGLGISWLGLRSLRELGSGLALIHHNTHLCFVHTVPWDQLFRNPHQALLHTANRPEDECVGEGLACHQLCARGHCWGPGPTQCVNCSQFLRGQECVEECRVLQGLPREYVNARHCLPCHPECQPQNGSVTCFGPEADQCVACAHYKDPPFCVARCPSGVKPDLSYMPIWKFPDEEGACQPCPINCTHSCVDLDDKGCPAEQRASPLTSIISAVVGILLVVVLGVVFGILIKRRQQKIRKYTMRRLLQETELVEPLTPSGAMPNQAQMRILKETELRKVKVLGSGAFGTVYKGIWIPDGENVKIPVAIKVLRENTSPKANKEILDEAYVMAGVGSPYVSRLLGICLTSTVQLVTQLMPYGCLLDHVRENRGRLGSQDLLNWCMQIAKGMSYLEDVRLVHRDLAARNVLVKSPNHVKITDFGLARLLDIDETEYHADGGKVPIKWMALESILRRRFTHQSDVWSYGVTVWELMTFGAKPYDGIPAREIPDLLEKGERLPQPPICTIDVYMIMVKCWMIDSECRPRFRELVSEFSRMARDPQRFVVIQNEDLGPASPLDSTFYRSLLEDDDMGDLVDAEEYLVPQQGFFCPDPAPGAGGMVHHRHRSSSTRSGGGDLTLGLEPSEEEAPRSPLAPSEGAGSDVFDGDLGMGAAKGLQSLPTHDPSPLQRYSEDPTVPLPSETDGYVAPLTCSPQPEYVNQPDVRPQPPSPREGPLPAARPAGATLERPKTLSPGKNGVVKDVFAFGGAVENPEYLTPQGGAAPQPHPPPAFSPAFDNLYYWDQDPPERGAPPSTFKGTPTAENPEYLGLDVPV
// return numeric value only (unit: nM, not printed)

A selection of reference data follows.
1) Clc1cc(Nc2ncnc3cnc(N4CCN5CCOC[C@H]5C4)nc23)ccc1Oc1ccn2ncnc2c1	25.5
2) Cc1cc(Nc2ncnc3cnc(N4CCCC4=O)nc23)ccc1Oc1ccn2ncnc2c1	166
3) Cn1cnc2cc(Oc3ccc(Nc4ncnc5cnc(N6C[C@H]7C[C@@H]6CO7)nc45)cc3Cl)ccc21	176

Task: I'd like to know its IC50. The compound in question is "Cc1cc(Nc2ncnc3cnc(O[C@H]4CCNC[C@@H]4F)nc23)ccc1Oc1ccc2c(c1)ncn2C"
Result: 787

Task: I'd like to know its IC50. The compound in question is "Cc1cc(Nc2ncnc3cnc(N4CCN5CCOC[C@H]5C4)nc23)ccc1Oc1ccn2ncnc2c1"
Result: 62.1

Task: I'd like to know its IC50. The compound in question is "O[C@@H]1[C@@H]2CC[C@H]1CN(c1ncc3ncnc(Nc4ccc(Oc5ccn6ncnc6c5)c(Cl)c4)c3n1)C2"
Result: 20.7

Task: I'd like to know its IC50. The compound in question is "CON(C)CCNc1ncc2ncnc(Nc3ccc(Oc4ccc5c(c4)ncn5C)c(C)c3)c2n1"
Result: 27.6

----------
efflux ratio at 2 h, 1 μM reference
# System Tested: BCRP (Homo sapiens (Human), UniProt Q9UNQ0)
# Sequence (Q9UNQ0 whole entry): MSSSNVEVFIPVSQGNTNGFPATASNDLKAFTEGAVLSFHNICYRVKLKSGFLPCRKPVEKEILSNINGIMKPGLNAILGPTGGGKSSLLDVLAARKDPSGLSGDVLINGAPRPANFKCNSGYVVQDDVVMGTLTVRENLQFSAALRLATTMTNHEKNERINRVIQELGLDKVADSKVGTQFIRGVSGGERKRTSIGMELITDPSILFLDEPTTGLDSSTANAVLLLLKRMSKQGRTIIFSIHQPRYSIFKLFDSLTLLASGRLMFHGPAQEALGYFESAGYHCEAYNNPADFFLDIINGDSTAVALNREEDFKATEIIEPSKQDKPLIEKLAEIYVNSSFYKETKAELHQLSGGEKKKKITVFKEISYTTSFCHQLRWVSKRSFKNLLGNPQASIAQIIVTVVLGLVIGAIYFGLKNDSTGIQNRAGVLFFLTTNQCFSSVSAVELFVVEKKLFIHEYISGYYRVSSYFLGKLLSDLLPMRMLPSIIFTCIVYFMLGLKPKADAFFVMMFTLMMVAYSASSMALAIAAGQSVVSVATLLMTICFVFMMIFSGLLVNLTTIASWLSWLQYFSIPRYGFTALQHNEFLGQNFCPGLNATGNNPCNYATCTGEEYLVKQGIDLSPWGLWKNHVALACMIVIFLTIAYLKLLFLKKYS
# Assay Summary: BCRP transfected MDCKII canine Mdr1 knockout permeability/efflux, Assay 9
# Test Settings: dog, Assay 9 Pe Ratio, efflux ratio Papp(B-A)/Papp(A-B), BCRP transfected MDCKII canine Mdr1 knockout
The answer should be a number; do not append a unit.

1) Cc1ncc(-c2ncc3ncnc(Nc4ccc(Oc5ccc6c(c5)ncn6C)c(C)c4)c3n2)o1 [Example 223]	3.7
2) Cc1cc(Nc2ncnc3cnc(N4CC[C@@H](C(F)F)C4)nc23)ccc1Oc1ccc2c(c1)ncn2C [Example 253]	2
3) Cc1cc(Nc2ncnc3cnc(N4CCO[C@H]5C[C@H]54)nc23)ccc1Oc1ccc2c(c1)ncn2C [Example 161]	1.2
4) Cc1cc(Nc2ncnc3cnc(N4CC[C@@H](C(C)(C)O)C4)nc23)ccc1Oc1ccc2c(c1)ncn2C [Example 113]	11
5) Cc1cc(Nc2ncnc3cnc(N4CCN(C5COC5)CC4)nc23)ccc1Oc1ccc2c(c1)ncn2C [Example 159]	9.6
6) Cc1cc(Nc2ncnc3cnc(N4CCOC(C)(C)C4)nc23)ccc1Oc1ccc2c(c1)ncn2C [Example 272]	0.6
7) Cc1cc(Nc2ncnc3cnc(N4CCCC4)nc23)ccc1Oc1ccc2c(c1)ncn2C [Example 222]	1.6
8) Cn1cnc2cc(Oc3ccc(Nc4ncnc5cnc(N6CC[C@@H](CC#N)C6)nc45)cc3Cl)ccc21 [Example 134]	6.8

Task: I'd like to know its efflux ratio at 2 h, 1 μM. The compound in question is CON1CCN(c2ncc3ncnc(Nc4ccc(Oc5ccc6c(c5)ncn6C)c(C)c4)c3n2)CC1 [Example 35]
Result: 1.2

Task: I'd like to know its efflux ratio at 2 h, 1 μM. The compound in question is Cc1cc(Nc2ncnc3cnc(N4CCO[C@@H]5C[C@@H]54)nc23)ccc1Oc1ccc2c(c1)ncn2C [Example 199]
Result: 1.4

Task: I'd like to know its efflux ratio at 2 h, 1 μM. The compound in question is Cc1cc(Nc2ncnc3cnc(N4CCC4)nc23)ccc1Oc1ccc2c(c1)ncn2C [Example 36]
Result: 0.9

Task: I'd like to know its efflux ratio at 2 h, 1 μM. The compound in question is Cc1cc(Nc2ncnc3cnc(N4CC[C@H](C(F)F)C4)nc23)ccc1Oc1ccc2c(c1)ncn2C [Example 252]
Result: 2.6

Task: I'd like to know its efflux ratio at 2 h, 1 μM. The compound in question is Cc1cc(Nc2ncnc3cnc(N4CCO[C@H](C)C4)nc23)ccc1Oc1ccc2c(c1)ncn2C [Example 265]
Result: 1.8

Task: I'd like to know its efflux ratio at 2 h, 1 μM. The compound in question is Cc1cc(Nc2ncnc3cnc(N4CCC[C@H]4C(F)(F)F)nc23)ccc1Oc1ccc2c(c1)ncn2C [Example 249]
Result: 3

Task: I'd like to know its efflux ratio at 2 h, 1 μM. The compound in question is Cc1cc(Nc2ncnc3cnc(N(C)CC(F)F)nc23)ccc1Oc1ccc2c(c1)ncn2C [Example 57]
Result: 1.4

Task: I'd like to know its efflux ratio at 2 h, 1 μM. The compound in question is Cc1cc(Nc2ncnc3cnc(N(C)CC4CCO4)nc23)ccc1Oc1ccc2c(c1)ncn2C (stereo not shown) [Example 350]
Result: 3.5

----------
IC50 reference
# System Tested: EGFR (Homo sapiens (Human))
// return numeric value only (unit: µM, not printed)

A selection of reference data follows.
1. Cc1cc(Nc2ncnc3cnc(N4CC[C@H](F)[C@@H](O)C4)nc23)ccc1Oc1ccc2c(c1)ncn2C [Example 162]	7.36
2. Cn1cnc2cc(Oc3ccc(Nc4ncnc5cnc(N6C[C@H]7CC[C@@H]6CO7)nc45)cc3Cl)ccc21 [Example 451]	3.5
3. CON(C)c1ncc2ncnc(Nc3ccc(Oc4ccc5c(c4)ncn5C)c(C)c3)c2n1 [Example 22]	8.7

Task: Give EGFR (Homo sapiens (Human)) IC50 for Cc1cc(Nc2ncnc3cnc(N(C)[C@@H]4CCOC4)nc23)ccc1Oc1ccn2ncnc2c1 [Example 427]
Result: 7.94

----------
Measured IC50 on EGFR (Homo sapiens (Human)) follows.
// return numeric value only (unit: µM, not printed)

A selection of reference data follows.
1. Cc1c(Oc2ccn3ncnc3c2)ccc(Nc2ncnc3cnc(N(C)CC(C)(C)O)nc23)c1F	6.84
2. Cc1cc(Nc2ncnc3cnc(N4C[C@@H](F)[C@@H](O)C4)nc23)ccc1Oc1ccc2c(c1)ncn2C	6.83
3. Cc1cc(Nc2ncnc3cnc(N4C[C@H]5CC[C@@H]4CO5)nc23)ccc1Oc1ccc2c(c1)ncn2C	3.43
4. Clc1cc(Nc2ncnc3cnc(N4CC[C@@H]5COC[C@H]54)nc23)ccc1Oc1ccn2ncnc2c1	1.2
5. CNc1ncc2ncnc(Nc3ccc(Oc4cc(F)c5c(c4)ncn5C)c(C)c3)c2n1	9.48

Task: I'd like to know its IC50. The compound in question is Cc1cc(Nc2ncnc3cnc(N4[C@H]5CC[C@@H]4[C@H](O)C5)nc23)ccc1Oc1ccc2c(c1)ncn2C (racemic)
Result: 4.68

----------
# System Tested: ErbB2 insYVMA (HER2-YVMA, SEQ ID NO: 2) (Homo sapiens, UniProt P04626, INS775YVMA/P1170A)
# Sequence (P04626 with tags, fused parts or gaps INS775YVMA/P1170A limits assumed): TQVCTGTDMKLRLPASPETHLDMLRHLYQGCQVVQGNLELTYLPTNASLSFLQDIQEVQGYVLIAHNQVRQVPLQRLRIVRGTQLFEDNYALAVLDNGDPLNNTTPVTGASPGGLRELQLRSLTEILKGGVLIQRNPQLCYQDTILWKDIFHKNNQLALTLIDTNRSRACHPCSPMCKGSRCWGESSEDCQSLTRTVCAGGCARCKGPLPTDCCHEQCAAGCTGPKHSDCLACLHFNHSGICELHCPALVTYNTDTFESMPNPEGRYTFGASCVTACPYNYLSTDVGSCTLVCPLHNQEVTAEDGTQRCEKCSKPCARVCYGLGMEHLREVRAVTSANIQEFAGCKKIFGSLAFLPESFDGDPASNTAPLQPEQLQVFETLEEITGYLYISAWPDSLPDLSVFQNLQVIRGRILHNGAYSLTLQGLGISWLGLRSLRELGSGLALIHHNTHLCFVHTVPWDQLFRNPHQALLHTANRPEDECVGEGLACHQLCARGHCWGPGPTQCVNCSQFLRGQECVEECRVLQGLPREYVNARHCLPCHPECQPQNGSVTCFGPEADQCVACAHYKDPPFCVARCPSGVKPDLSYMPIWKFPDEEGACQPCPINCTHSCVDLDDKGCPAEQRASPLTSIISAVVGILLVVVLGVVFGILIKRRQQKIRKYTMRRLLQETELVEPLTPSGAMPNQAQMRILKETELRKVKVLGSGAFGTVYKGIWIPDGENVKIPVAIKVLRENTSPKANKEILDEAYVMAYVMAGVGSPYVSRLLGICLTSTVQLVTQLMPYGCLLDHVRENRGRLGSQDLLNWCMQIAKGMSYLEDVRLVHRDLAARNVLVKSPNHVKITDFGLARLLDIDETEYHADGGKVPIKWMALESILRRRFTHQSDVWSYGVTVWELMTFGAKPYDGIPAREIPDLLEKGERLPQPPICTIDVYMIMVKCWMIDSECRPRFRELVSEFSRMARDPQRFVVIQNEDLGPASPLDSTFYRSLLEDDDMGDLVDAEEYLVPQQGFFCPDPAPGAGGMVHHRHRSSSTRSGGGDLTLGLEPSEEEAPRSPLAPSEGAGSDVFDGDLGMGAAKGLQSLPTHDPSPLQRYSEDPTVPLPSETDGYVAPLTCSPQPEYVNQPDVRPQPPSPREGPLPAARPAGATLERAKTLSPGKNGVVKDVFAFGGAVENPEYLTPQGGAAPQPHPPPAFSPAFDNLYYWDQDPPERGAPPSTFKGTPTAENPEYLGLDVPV
# Assay Summary: biochemical
# Test Settings: ErbB2 insYVMA enzyme assay; read-out: Assay 1 IC50
Assay Metric: IC50

A selection of reference data follows.
1) Cc1cc(Nc2ncnc3cnc(N(C)c4cnn(C)c4)nc23)ccc1Oc1ccc2c(c1)ncn2C	38.4 nM
2) Cc1cc(Nc2ncnc3cnc(N4C[C@H]5C[C@@H]4CO5)nc23)ccc1Oc1cc(F)c2c(c1)ncn2C	31.9 nM
3) Cc1cc(Nc2ncnc3cnc(N4CC[C@@H](C(F)F)C4)nc23)ccc1Oc1ccc2c(c1)ncn2C	93 nM
4) Cc1cc(Nc2ncnc3cnc(N4CCC[C@@H]4C(F)(F)F)nc23)ccc1Oc1ccc2c(c1)ncn2C	171 nM
5) Cc1cc(Nc2ncnc3cnc(N4C[C@H]5CCCN5C4=O)nc23)ccc1Oc1ccc2c(c1)ncn2C	53.9 nM

Task: Give ErbB2 insYVMA (HER2-YVMA, SEQ ID NO: 2) (Homo sapiens, UniProt P04626, INS775YVMA/P1170A) IC50 for "COC1(C)CN(c2ncc3ncnc(Nc4ccc(Oc5ccc6c(c5)ncn6C)c(C)c4)c3n2)C1"
Result: 40.2 nM

Task: Give ErbB2 insYVMA (HER2-YVMA, SEQ ID NO: 2) (Homo sapiens, UniProt P04626, INS775YVMA/P1170A) IC50 for "Clc1cc(Nc2ncnc3cnc(N4C5CCC4COC5)nc23)ccc1Oc1ccn2ncnc2c1"
Result: 21.6 nM
